- Experiment: Inhibition of Vibrio cholerae MetAp1a by Morrison method
Measured Ki accompanies every entry in the list below.
Note: unit nM is implicit; provide only the numeric part.

{"columns": ["Molecular String", "Ki, nM"],
 "data": [
  ["CC(=O)Nc1cc(O)nc(-c2ccccn2)n1", 90]
]}

Item Cc1nc(-c2ccccn2)nc(O)c1CC1CC1 : provide Ki
320

Item CCOC(=O)c1cnc(-c2ccccn2)nc1O : provide Ki
110

* * *

- Experiment: Inhibition of Vibrio cholerae MetAp1a by Morrison method
pKi: −log10 of the molar value.
Give MET when the value for pKi is at least 6. Give NOT MET when it is less.

{"columns": ["Molecular String", "Assigned Category"],
 "data": [
  ["Cc1nc(-c2ccccn2)nc(N(C)c2ccccc2)c1Cl", "MET"]
]}

Please tell me: is the molecule Cc1nc(-c2ccccn2)nc(N2CCN(C)CC2)c1Cl at or over 6 in terms of pKi?
MET

Please tell me: is the molecule c1ccc(-c2ccccn2)nc1 at or over 6 in terms of pKi?
NOT MET

Please tell me: is the molecule COCc1nc(-c2ccccn2)nc(O)c1CC1CC1 at or over 6 in terms of pKi?
MET

Please tell me: is the molecule CC(C)S(=O)(=O)c1cnc(-c2ccccn2)nc1N at or over 6 in terms of pKi?
MET

Please tell me: is the molecule Cc1nc(-c2ccccn2)nc(NCCNc2cccc(C(F)(F)F)n2)c1Cl at or over 6 in terms of pKi?
NOT MET
